- Test system: SK-ES-1 (Ewing's Sarcoma);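 note: after 72 h of two-drug dosing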
- Assay name: Bliss excess, mean over the matrix (fraction); higher = more synergy
Quantity name: Bliss excess
Kindly provide the number alone.

Worked examples, 4 compounds total:
The reported Bliss excess value, SK-ES-1 (Ewing's Sarcoma), for CC(=O)c1c(C)c2cnc(Nc3ccc(N4CCNCC4)cn3)nc2n(C2CCCC2)c1=O [Palbociclib] + CC1(C)CCC(CN2CCN(c3ccc(C(=O)NS(=O)(=O)c4ccc(NCC5CCOCC5)c([N+](=O)[O-])c4)c(Oc4cnc5[nH]ccc5c4)c3)CC2)=C(c2ccc(Cl)cc2)C1 [Venetoclax] (first compound max 10 µM, 7x7, partner max 1 µM) reads 0.0758

Bliss excess value, target or system SK-ES-1 (Ewing's Sarcoma), for CN(CCO)CC[C@H](CSc1ccccc1)Nc1ccc(S(=O)(=O)NC(=O)c2ccc(N3CCC([C@@H](O)c4ccccc4-c4ccc(Cl)cc4)CC3)cc2)cc1S(=O)(=O)C(F)(F)F [AZD4320] + CN(C)CCCOc1ccc(-c2ccc3ncc4c(c3c2)n(C2CCOCC2)c(=O)n4C)cn1 [AZD0156] (first compound max 1 µM, 7x7, partner max 1 µM) : 0.047

With SK-ES-1 (Ewing's Sarcoma) as the test system, CCc1c2c(nc3ccc(O)cc13)-c1cc3c(c(=O)n1C2)COC(=O)[C@]3(O)CC [SN-38] + O=C(c1cc(Cc2n[nH]c(=O)c3ccccc23)ccc1F)N1CCN(C(=O)C2CC2)CC1 [Olaparib] (first compound max 0.3 µM, 7x7, partner max 10 µM) showed Bliss excess of 0.0611

Field Bliss excess (system: SK-ES-1 (Ewing's Sarcoma)) for entry CC1(C)CCC(CN2CCN(c3ccc(C(=O)NS(=O)(=O)c4ccc(NCC5CCOCC5)c([N+](=O)[O-])c4)c(Oc4cnc5[nH]ccc5c4)c3)CC2)=C(c2ccc(Cl)cc2)C1 [Venetoclax] + Cn1cnc2c(F)c(Nc3ccc(Br)cc3Cl)c(C(=O)NOCCO)cc21 [Selumetinib] (first compound max 1 µM, 7x7, partner max 3 µM) = 0.0234

Next:
Let me check: COc1nnc2ccc(N3CCC(c4ccc(OCCN5CCN(C)C(=O)[C@H]5C)cc4)CC3)nn12 [AZD5153] + C[C@@H]1COCCN1C2=NC(=NC(=C2)C3(CC3)[S@](=N)(=O)C)C4=C5C=CNC5=NC=C4 [AZD6738] (first compound max 1 µM, 7x7, partner max 10 µM) , system SK-ES-1 (Ewing's Sarcoma), measured Bliss excess is 0.0023

Kindly note: SK-ES-1 (Ewing's Sarcoma), COc1nnc2ccc(N3CCC(c4ccc(OCCN5CCN(C)C(=O)[C@H]5C)cc4)CC3)nn12 [AZD5153] + CC1(C)CCC(CN2CCN(c3ccc(C(=O)NS(=O)(=O)c4ccc(NCC5CCOCC5)c([N+](=O)[O-])c4)c(Oc4cnc5[nH]ccc5c4)c3)CC2)=C(c2ccc(Cl)cc2)C1 [Venetoclax] (first compound max 1 µM, 7x7, partner max 1 µM) , Bliss excess value reported: -0.0092
